- targetSystem: SARS-CoV-2 polymerase complex (RdRp; nsp12, nsp7-nsp8) (Severe acute respiratory syndrome coronavirus 2)
- assayInfo: biochemical
- particulars: RdRp inhibition IC50, in vitro polymerase activity assay
measurementKind: IC50 (µM)
// note: answer is a bare numeric in µM

Problem: Fill blank: measured IC50 of the molecule CC(C)=CCc1cc(-c2coc3cc(O)cc(O)c3c2=O)cc(O)c1O [Glycyrrhisoflavone] is ____.
Solution: 28.9

* * *

- targetSystem: PDE4 (catalytic domain of human PDE4D) (Homo sapiens, UniProt Q08499)
- Sequence (Q08499 388-715): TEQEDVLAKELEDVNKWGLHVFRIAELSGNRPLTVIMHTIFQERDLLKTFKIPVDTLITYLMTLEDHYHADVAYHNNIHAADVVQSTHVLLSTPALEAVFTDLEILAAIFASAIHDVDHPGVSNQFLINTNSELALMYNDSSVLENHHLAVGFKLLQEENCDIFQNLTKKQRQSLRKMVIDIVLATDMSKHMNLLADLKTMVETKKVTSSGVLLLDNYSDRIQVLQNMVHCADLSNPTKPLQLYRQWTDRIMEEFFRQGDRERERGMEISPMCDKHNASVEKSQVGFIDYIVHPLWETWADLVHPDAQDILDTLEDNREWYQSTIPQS
measurementKind: IC50 (µM)
// note: answer is a bare numeric in µM

O=c1c(O)c(-c2ccc(O)c(O)c2)oc2cc(O)cc(O)c12 :: 17.4

Now, please, on to the next compound.
Problem: Fill blank: measured IC50 of the compound CC(C)=CCc1cc(-c2coc3cc(O)cc(O)c3c2=O)cc(O)c1O is ____.
Solution: 1.29
